Target: HLA-A*68:01
Test: IEDB peptide-MHC binding, purified MHC/competitive/radioactivity; filed as Kd, often an IC50 or EC50 that approximates it; bounds were set here for any values at or beyond the usual limits of such assays
Conditions: source organism: Dengue virus 2 Jamaica/1409/1983
Reported Kd values are given for each entry in this list.
Your answer is read as nM, so omit the unit and give the number.

Sample answers from the record:
biosequence	displayUnit	Kd
EVKSCHWPK	nM	70.6
DAIDGEYRLR	nM	17.1

Please look at the following sequence next.
Data request, read-out Kd, for `IAVSMANIFR` 17.3

----------
Molecular target: HLA-B*07:02
Experiment: IEDB peptide-MHC binding, purified MHC/direct/fluorescence; filed as Kd, often an IC50 or EC50 that approximates it; bounds were set here for any values at or beyond the usual limits of such assays
Details: source organism: Mycobacterium tuberculosis
measurementKind: Kd

For the sequence shown here, `IQAVFGFSL` , give the reported Kd. ≥ 20 µM
